Reference source for all entries: PubChem BioAssay AID651999

biological target: COP9 signalosome complex subunit 5 (Homo sapiens) (UniProt Q92905); assay: CSN5 deneddylase inhibitors on cullin-RING ligase – biochemical, fluorescence polarization, uHTS, primary screen (AID 651999); settings: Purified CSN, SCF-Nedd8-OG deneddylation, at 12.5 µM, hits give high values;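 further: 0% = enzyme with substrate and 100% = substrate without enzyme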
Sequence (Q92905 whole entry, looked up, one chain of several): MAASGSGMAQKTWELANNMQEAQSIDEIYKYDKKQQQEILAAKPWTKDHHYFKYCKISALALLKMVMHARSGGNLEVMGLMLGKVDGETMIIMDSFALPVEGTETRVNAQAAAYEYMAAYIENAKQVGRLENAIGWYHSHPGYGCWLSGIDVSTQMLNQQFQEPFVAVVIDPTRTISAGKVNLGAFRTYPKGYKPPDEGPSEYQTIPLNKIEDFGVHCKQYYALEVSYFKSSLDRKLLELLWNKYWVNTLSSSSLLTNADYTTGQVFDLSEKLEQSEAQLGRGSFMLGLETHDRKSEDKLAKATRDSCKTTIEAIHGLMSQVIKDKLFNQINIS
The whole screen tested about 360,000 compounds, of which about 1,400 (0.39%) were called active. The full list was thinned out, with actives kept by preference.
Observable: inhibition (%)
Give bare numbers, in %.

// known answers, use as guide
Molecule: CN1CCN(c2ccc(S(=O)(=O)N3CCOCC3)cc2NC(=O)CCc2ccccc2)CC1
Observable: inhibition
Experimental Value: 2.64
//
Molecule: CCCC(=O)n1nc(NCc2ccc(OC)cc2)nc1NCc1ccc(OC)cc1
Observable: inhibition
Experimental Value: 0.03
//
Molecule: CCN1/C(=C\c2ccc3ccccc3[n+]2CC)Sc2cc(C)ccc21
Observable: inhibition
Experimental Value: 62.2
//
Molecule: COc1cc(CN(C)Cc2nc3cc(C(F)(F)F)ccc3c(=O)[nH]2)ccc1OC(F)F
Observable: inhibition
Experimental Value: 5.3
//
Molecule: O=C(CCN1C(=O)c2ccccc2C1=O)NNC(=O)c1ccc(Cl)cc1Cl
Observable: inhibition
Experimental Value: -5.29

Hi, could you look up inhibition for each item in my list?
1. FC(F)(F)c1ccccc1Cc1c(-c2ccccc2)nc2c3ccccc3ccn12
2. COc1ccc(OC)c(CNC(=O)CCc2nc(-c3cccs3)no2)c1

OUT:
3.57
2.31

For each listed entry, give its inhibition.
1. COC(=O)c1ccc(CN2CCN(CCCc3ccccc3)C(CCO)C2)cc1 (stereo not given)
2. O=S(=O)(Nc1ccc2ccccc2c1)N1CCCCC1
3. CCCC/C(C)=N/NC(=O)NC1CCCCC1

OUT:
1. -2.91
2. -1.67
3. -3.54
